molecular target: human PD-L1 (cell surface) (human, UniProt Q9NZQ7); test: FACS
Sequence (Q9NZQ7 19-238): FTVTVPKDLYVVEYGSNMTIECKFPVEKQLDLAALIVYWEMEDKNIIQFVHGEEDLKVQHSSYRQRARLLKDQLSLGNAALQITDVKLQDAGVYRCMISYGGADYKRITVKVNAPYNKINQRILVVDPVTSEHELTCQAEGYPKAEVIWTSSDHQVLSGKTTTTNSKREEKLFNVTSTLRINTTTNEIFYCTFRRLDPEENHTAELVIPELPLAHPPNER
measurement label: EC50

See these solved cases before continuing.
| binder | EC50 |
| --- | --- |
| 5F8-6D6 (antibody, V domains shown) VH: EVQLVESGGGLVQPGGSLRLSCAASGFDFSDTAMSWVRQAPGKERELVAIITSGGSVDYVDSVKGRFTISRDNSKNTLYLQMNSLRAEDTAVYYCRARRTTIYWGQGTQVTVSS | 520 pM |
| 5F8-7D5 (antibody, V domains shown) VH: EVQLVESGGGLVQPGGSLRLSCAASGFDFEDTHMSWVRQAPGKERELVAIITSGCSTDYVDSVKGRFTISRDNSKNTLYLQMNSLRAEDTAVYYCNARRATIYWGQGTQVTVSS | 510 pM |
| 5F8-8H3 (antibody, V domains shown) VH: EVQLVESGGGLVQPGGSLRLSCAASGFDFSMTHMSWVRQAPGKERELVAIITSGGKTDYVDSVKGRFTISRDNSKNTLYLQMNSLRAEDTAVYYCNARRATIYWGQGTQVTVSS | 510 pM |

Below: the item to evaluate.
Please fill in: EC50 reported for 5F8-8D4 (antibody, V domains shown) VH: EVQLVESGGGLVQPGGSLRLSCAASGFDFSDTFMSWVRQAPGKERELVAIITSGGSTDYVDSVKGRFTISRDNSKNTLYLQMNSLRAEDTAVYYCNARRTTIYWGQGTQVTVSS = 490 pM

Value source: patent US20260365734
